meta.source: ChEMBL document CHEMBL1138006

- target_or_test_system: Prostaglandin G/H synthase 2 (Rattus norvegicus) (UniProt P35355)
- Sequence (whole entry): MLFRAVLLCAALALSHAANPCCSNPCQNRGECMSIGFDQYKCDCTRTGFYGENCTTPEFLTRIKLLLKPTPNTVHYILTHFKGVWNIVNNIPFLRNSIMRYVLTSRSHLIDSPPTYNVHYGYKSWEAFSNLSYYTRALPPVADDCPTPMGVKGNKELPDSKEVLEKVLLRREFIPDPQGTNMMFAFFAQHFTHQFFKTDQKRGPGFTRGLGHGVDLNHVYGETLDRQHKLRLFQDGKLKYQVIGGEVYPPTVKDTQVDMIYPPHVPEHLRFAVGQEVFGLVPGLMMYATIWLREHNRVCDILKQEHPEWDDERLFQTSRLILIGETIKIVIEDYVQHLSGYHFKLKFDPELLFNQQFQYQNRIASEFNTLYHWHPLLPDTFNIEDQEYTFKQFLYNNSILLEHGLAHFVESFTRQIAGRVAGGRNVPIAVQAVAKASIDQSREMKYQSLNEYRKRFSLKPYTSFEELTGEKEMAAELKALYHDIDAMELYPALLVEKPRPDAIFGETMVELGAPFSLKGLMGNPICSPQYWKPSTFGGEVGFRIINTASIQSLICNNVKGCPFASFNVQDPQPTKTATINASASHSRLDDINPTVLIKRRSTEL
- assay_procedure: Percent reversal of FCA-induced arthritis in rats at 10 mg/kg
- Assay type: functional, organism-based
- Set-up: dose 10 mg/kg
property: Reversal activity (%)

Answered examples (2):
Exercise: Lab note: need Reversal activity with Prostaglandin G/H synthase 2 (Rattus norvegicus) (UniProt P35355) for entry `CS(=O)(=O)c1ccc(-c2c(-c3cccc(F)c3)nn3ncccc23)cc1` , please look it up.
Key: 78

Exercise: Test system Prostaglandin G/H synthase 2 (Rattus norvegicus) (UniProt P35355); read-out Reversal activity; what value for `COc1ccc2c(-c3ccc(S(C)(=O)=O)cc3)c(-c3ccc(F)cc3)nn2n1` ?
Key: 10

I: CCOc1ccc(-c2nn3nc(S(C)(=O)=O)ccc3c2-c2ccc(S(N)(=O)=O)cc2)cc1
II: CCOc1ccc2c(-c3ccc(S(C)(=O)=O)cc3)c(-c3ccc(F)cc3)nn2n1
III: NS(=O)(=O)c1ccc(-c2c(-c3ccc(OC(F)(F)F)cc3)nn3ncccc23)cc1
Exercise: Sort the molecules on Reversal activity; start with the lowest figure. Answer by listing the labels in the requested order.
Key: I, II, III
(I: 0%, II: 11%, III: 92%)

* * *

- target_or_test_system: Prostaglandin G/H synthase 2 (Homo sapiens, UniProt P35354)
- Sequence (P35354 whole entry): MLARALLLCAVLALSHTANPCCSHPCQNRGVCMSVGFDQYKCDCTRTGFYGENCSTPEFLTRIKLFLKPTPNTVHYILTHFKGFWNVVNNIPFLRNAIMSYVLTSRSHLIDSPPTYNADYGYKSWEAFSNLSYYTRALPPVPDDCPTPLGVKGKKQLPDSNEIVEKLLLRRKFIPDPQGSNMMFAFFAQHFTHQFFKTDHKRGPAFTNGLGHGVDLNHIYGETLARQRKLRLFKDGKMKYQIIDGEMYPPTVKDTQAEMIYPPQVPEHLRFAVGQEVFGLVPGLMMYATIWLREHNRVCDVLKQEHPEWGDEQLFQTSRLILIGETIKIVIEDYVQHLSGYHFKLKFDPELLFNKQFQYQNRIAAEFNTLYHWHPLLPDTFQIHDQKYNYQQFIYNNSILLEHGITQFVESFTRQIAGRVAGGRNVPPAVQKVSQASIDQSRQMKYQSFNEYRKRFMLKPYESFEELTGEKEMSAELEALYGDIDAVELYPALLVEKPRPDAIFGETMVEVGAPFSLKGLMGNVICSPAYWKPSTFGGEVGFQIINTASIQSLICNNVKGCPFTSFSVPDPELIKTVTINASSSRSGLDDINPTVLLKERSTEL
pIC50: −log10 of the molar value.
property: pIC50

Exercise: Entry `CS(=O)(=O)c1ccc(-c2c(-c3cccc(F)c3)nn3ncccc23)cc1` has what pIC50?
Key: 7.47

a: CS(=O)(=O)c1ccc(-c2c(-c3ccccc3)nn3ncccc23)cc1
b: NS(=O)(=O)c1ccc(-c2c(-c3ccc(OC(F)(F)F)cc3)nn3ncccc23)cc1
c: CCOc1ccc2c(-c3ccc(S(C)(=O)=O)cc3)c(-c3ccc(F)cc3)nn2n1
d: COc1ccc2c(-c3ccc(S(N)(=O)=O)cc3)c(-c3ccc(F)cc3)nn2n1
Exercise: Sort the compounds on pIC50; start with the lowest figure. Reply with the labels, ordered as the question asks.
Key: b, c, d, a
